protocol: Oral absorption expressed as Area under curve was determined
Type: ADME
Parameters: concentration or dose not given beside the values
value.type: AUC (µg·h/mL)

Here's what some known entries look like.
Cc1cc(C)c(NC(=O)c2sccc2S(=O)(=O)Nc2onc(C)c2Cl)c(C)c1O | 118
CCc1cc(C)cc(C)c1NC(=O)c1sccc1S(=O)(=O)Nc1onc(C)c1Cl | 47
Cc1cc(C)c(NC(=O)c2sccc2S(=O)(=O)Nc2onc(C)c2Cl)c(C(=O)C(C)C)c1 | 298
Cc1cc(C)c(NC(=O)c2sccc2S(=O)(=O)Nc2noc(C)c2Cl)c(C)c1CC#N | 171
Cc1cc(C)c(NC(=O)c2sccc2S(=O)(=O)Nc2onc(C)c2C)c(C)c1CC#N | 45.8

1 = Cc1cc(C)c(NC(=O)c2sccc2S(=O)(=O)Nc2onc(C)c2Cl)c(C)c1CC#N
2 = Cc1cc(C)c(NC(=O)c2sccc2S(=O)(=O)Nc2onc(C)c2Cl)c(C)c1
3 = Cc1cc(C)c(CC(=O)c2sccc2S(=O)(=O)Nc2onc(C)c2Cl)c(C)c1O
4 = CC(=O)c1cc(C)cc(C)c1NC(=O)c1sccc1S(=O)(=O)Nc1onc(C)c1Cl
IN: Reorder: AUC, max to min. // list labels; follow requested order
OUT: 4, 2, 1, 3

----------
protocol: Oral bioavailability was evaluated in dog.
Format: ADME, organism-based, Canis lupus familiaris
reported.conditions: in vivo
value.type: bioavailability (%)
Quick reminder: number only, in %, skip the unit.

IN: GET /values?readout=bioavailability&item= CC(=O)c1cc(C)cc(C)c1NC(=O)c1sccc1S(=O)(=O)Nc1onc(C)c1Cl
OUT: 70

----------
protocol: Half life period in plasma was determined
Assay type: ADME, cell-free
value.type: half-life (h)
Quick reminder: number only, in h, skip the unit.

IN: GET /values?readout=half-life&item= CC(=O)c1cc(C)cc(C)c1NC(=O)c1sccc1S(=O)(=O)Nc1onc(C)c1Cl
OUT: 4

----------
protocol: Oral bioavailability in rat
Type: ADME, organism-based
reported.conditions: in vivo
value.type: bioavailability (%)

CC(=O)c1cc(C)cc(C)c1NC(=O)c1sccc1S(=O)(=O)Nc1onc(C)c1Cl | 25

I = CC(=O)c1cc2c(cc1NC(=O)c1sccc1S(=O)(=O)Nc1onc(C)c1Cl)OCO2
II = Cc1noc(NS(=O)(=O)c2ccsc2C(=O)Nc2cc3c(cc2C#N)OCO3)c1Cl
IN: When the recorded bioavailability values are compared, which is smaller: that of I or that of II ? Respond with the label that goes with your answer.
OUT: II

----------
protocol: Oral bioavailability was evaluated in cat.
Assay type: ADME, organism-based, Felis catus
reported.conditions: in vivo
value.type: bioavailability (%)
Quick reminder: number only, in %, skip the unit.

IN: GET /values?readout=bioavailability&item= CC(=O)c1cc(C)cc(C)c1NC(=O)c1sccc1S(=O)(=O)Nc1onc(C)c1Cl
OUT: 42

----------
protocol: Oral absorption expressed as peak plasma conc (Cmax) after oral dosing of 50 mg/kg in rat
Type: ADME, organism-based
Design: dose 50 mg/kg, route oral
value.type: Cmax (ng/mL)

Here's what some known entries look like.
Cc1cc(C)c(NC(=O)c2sccc2S(=O)(=O)Nc2onc(C)c2Cl)c(C)c1O | 48200
Cc1cc(C)c(NC(=O)c2sccc2S(=O)(=O)Nc2onc(C)c2Cl)c(C)c1CC#N | 42000
CC(=O)c1cc(C)cc(C)c1NC(=O)c1sccc1S(=O)(=O)Nc1onc(C)c1Cl | 57600
Cc1cc(C)c(NC(=O)c2sccc2S(=O)(=O)Nc2noc(C)c2Cl)c(C)c1CC#N | 53900
Cc1cc(C)c(NC(=O)c2sccc2S(=O)(=O)Nc2onc(C)c2C)c(C)c1CC#N | 13000
Cc1cc(C)c(NC(=O)c2sccc2S(=O)(=O)Nc2onc(C)c2Cl)c(C(=O)C(C)C)c1 | 59200
Cc1cc(C)c(CC(=O)c2sccc2S(=O)(=O)Nc2onc(C)c2Cl)c(C)c1O | 2600

1 = CCc1cc(C)cc(C)c1NC(=O)c1sccc1S(=O)(=O)Nc1onc(C)c1Cl
2 = Cc1cc(C)c(NC(=O)c2sccc2S(=O)(=O)Nc2onc(C)c2Cl)c(C)c1
IN: When the recorded Cmax values are compared, which is smaller: that of 1 or that of 2 ? Respond with the label that goes with your answer.
OUT: 1

Numbers sourced from ChEMBL document CHEMBL1134651.
